Molecular target: human ETA receptor (Homo sapiens)
Construct: CHO cell stably over-expressing the full length human ETA receptor; expressed in transfected cells
Sequence (P25101 21-427): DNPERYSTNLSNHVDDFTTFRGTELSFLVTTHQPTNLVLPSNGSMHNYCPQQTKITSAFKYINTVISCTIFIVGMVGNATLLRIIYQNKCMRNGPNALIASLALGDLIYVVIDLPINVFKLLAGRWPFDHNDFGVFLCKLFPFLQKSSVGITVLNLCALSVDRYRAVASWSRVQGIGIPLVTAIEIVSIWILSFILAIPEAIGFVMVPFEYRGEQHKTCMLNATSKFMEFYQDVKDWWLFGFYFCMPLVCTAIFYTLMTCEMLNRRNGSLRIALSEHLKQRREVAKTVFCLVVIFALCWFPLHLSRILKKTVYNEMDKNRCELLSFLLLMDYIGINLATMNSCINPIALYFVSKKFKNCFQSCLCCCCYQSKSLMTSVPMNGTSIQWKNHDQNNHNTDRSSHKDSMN
Test: ETA functional assay (FLIPR Ca efflux, Endothelin-1 at EC80)
Assay type: cell-based
Settings: CHO cells over-expressing full length human ETA receptor; Endothelin-1 as agonist at EC80
pIC50: −log10 of the molar value.
measured endpoint: pIC50

Some molecules with known pIC50 results, for comparison:
>>> measured("CCc1cc2c(c(Sc3ccccc3)cc(=O)n2Cc2ccc(-c3ccsc3S(=O)(=O)Nc3noc(C)c3C)cc2)c(CC)n1")
5.53
>>> measured("CCOc1cc(=O)n(Cc2ccc(-c3cc(C)sc3S(=O)(=O)Nc3noc(C)c3C)c(C)c2)c2cc(CC)nc(CC)c12")
6.11

a = CCOCc1cc(Cn2nc(-c3cccs3)c3c(C)nc(CC)cc32)ccc1-c1cc(C)sc1S(=O)(=O)Nc1onc(C)c1C
b = CCc1cc2c(c(C)n1)c(-c1ccc(OC)cc1)nn2Cc1ccc(-c2cc(C)sc2S(=O)(=O)Nc2noc(C)c2C)c(C)c1
// which entry has the larger pIC50 value, a or b ? Write down the label attached to your selection.
a
(a: 6.19, b: 5.72)

Values from patent US20100010035A1
